Below is a list of entries, each paired with its recorded melting point value.
RECORDED_METRIC: melting point

| COMPOUND | OBSERVED_RESULT |
| --- | --- |
| CC(CC1CC1)(CC1CC1)NC(=O)c1cnc2ccccc2c1 | 92 to 94 °C |
| O=C(NC(CC1CC1)CC1CC1)c1cnc2c(F)cccc2c1 | 141 to 143 °C |
| C=C(Cl)CC(C)(CC1CCCCC1)NC(=O)c1cnc2c(F)cccc2c1 (centres unmarked) | 109 to 111 °C |
| C=C(C)CC(C)(CC1CCCCC1)NC(=O)c1cnc2c(F)c(F)ccc2c1 (centres unmarked) | 115 to 117 °C |
| C/C(=C/c1ccccc1)CC(C)(C)NC(=O)c1cnc2c(F)cccc2c1 | 127 to 129 °C |
| Cc1cccc2cc(C(=O)NC(C)(CC3CCCCC3)CC(F)(F)F)cnc12 (centres unmarked) | 107 to 110 °C |
| CC(C)CC(C)(CC(C)C)NC(=O)c1cnc2c(F)cccc2c1 | 139 to 142 °C |
| CC(CC1CCCCC1)(CC(F)(F)F)NC(=O)c1cnc2c(F)cccc2c1 (centres unmarked) | 55 to 76 °C |
| C[C@](CC1CCCCC1)(CC(F)(F)F)NC(=O)c1cnc2c(F)cccc2c1 | 132 to 133 °C |
| C=C(C)CC(C)(CC(C)C)NC(=O)c1cnc2ccccc2c1 (centres unmarked) | 89 to 91 °C |
| CC(CC1CC1)(CC1CC1)NC(=O)c1cnc2c(F)cccc2c1 | 96 to 98 °C |
| CC(CC1CC=CCC1)(CC(F)(F)F)NC(=O)c1cnc2c(F)cccc2c1 (centres unmarked) | 115 to 118 °C |
| COc1ccc(CCC(C)(C#N)NC(=O)c2cnc3c(F)cccc3c2)cc1 (centres unmarked) | 175 to 176 °C |
| CC(CC1CCCC1)(CC(F)(F)F)NC(=O)c1cnc2c(F)c(F)ccc2c1 (centres unmarked) | 115 to 116 °C |
| CC(C)(Cc1ccccc1)C(C)(C)NC(=O)c1cnc2c(F)cccc2c1 | 131 to 132 °C |
| C/C(=C\c1ccccc1)CC(C)(C)NC(=O)c1cc2cccc(F)c2nc1C | 108 to 110 °C |
| CC(C)=C(F)CC(C)(CC(C)C)NC(=O)c1cnc2c(F)cccc2c1 (centres unmarked) | 119 to 121 °C |
| CC(CC1CC=CCC1)(CC(F)(F)F)NC(=O)c1cnc2ccccc2c1 (centres unmarked) | 90 to 95 °C |
| CCC(CC)CC(C)(CC(F)(F)F)NC(=O)c1cnc2ccccc2c1 (centres unmarked) | 93 to 95 °C |
| CC(C)=CCC(C)(CC(C)C)NC(=O)c1cnc2c(F)cccc2c1 (centres unmarked) | 94 to 96 °C |

---

| COMPOUND | melting point |
| --- | --- |
| C[C@](CC1CCCC1)(CC(F)(F)F)NC(=O)c1cnc2c(F)cccc2c1 | 102 to 105 °C |
| CC(CC1CCCCC1)(CC(F)(F)F)NC(=O)c1cnc2c(F)c(F)ccc2c1 (centres unmarked) | 99 to 102 °C |
| C/C(=C/c1ccccc1)CC(C)(C)NC(=O)c1cnc2c(F)cccc2c1C | 96 to 98 °C |
| Cc1cccc2cc(C(=O)NC(C)(CC3CC=CCC3)CC(F)(F)F)cnc12 (centres unmarked) | 112 to 114 °C |
| CC(C)(C)C(CCc1ccccc1)NC(=O)c1cnc2c(F)cccc2c1 (centres unmarked) | 55 to 65 °C |

Origin of measurements: patent US11185074B2
